Data provenance is ChEMBL document CHEMBL3988442.

# measurement_target: AMP-activated protein kinase, AMPK (Homo sapiens) (UniProt P54646+O43741+P54619+Q9UGJ0+Q9Y478+Q13131+Q9UGI9)
# protocol_notes: AMP-dependent Kinase enzyme assay. An in vitro enzyme assay that detects ADP turnover that is directly proportional to AMPK activity. This uses naive AMPK that is activated during the assay with MK-8722
# Assay type: functional
# Design: scale not given: direction of the effect not stated beside the values
# details: 30 µM
measurement_kind: Percent Effect (%)
Report the value in % with no unit label.

-- ask # lookup: Percent Effect of NC1CCCc2c1cnn2-c1cc(F)cc(F)c1 (stereo unspecified)
-- reply 10.6

-- ask # lookup: Percent Effect of COc1nc(C)ccc1CNC(=O)NC(c1ncc(C)s1)C1CC1 (stereo unspecified)
-- reply -2.14

-- ask # lookup: Percent Effect of CC(C(=O)NCc1ccc2c(c1)OCCO2)n1cncn1 (stereo unspecified)
-- reply -8.38

-- ask # lookup: Percent Effect of CCOC(=O)N1CCC(NC(=O)c2cccc(C3CCCNC3)c2)CC1 (stereo unspecified)
-- reply 7.59

-- ask # lookup: Percent Effect of Cc1occc1CNc1ncccc1S(N)(=O)=O
-- reply 6.37

-- ask # lookup: Percent Effect of Cc1cc(C(=O)NC(C)CC(=O)c2ccco2)[nH]n1 (stereo unspecified)
-- reply 2.92

-- ask # lookup: Percent Effect of Cc1nnc(CN(C)CC(=O)NCCc2ccc(F)cc2)n1C
-- reply 5.73

-- ask # lookup: Percent Effect of Cc1cccc(COc2ccc(C(C)NC(=O)CNC(N)=O)cc2)c1 (stereo unspecified)
-- reply 1.42

-- ask # lookup: Percent Effect of CCCc1ccc(CN2CCC3(CCC(=O)N(CCO)C3)CC2)o1
-- reply 12.9

-- ask # lookup: Percent Effect of Cc1ccc(-n2ncc3c2CCCC3N)cc1C (stereo unspecified)
-- reply 16.9

-- ask # lookup: Percent Effect of CC(C)(O)CCc1cccc(C(=O)NCc2nccs2)c1
-- reply 0.5

-- ask # lookup: Percent Effect of Cc1c(NC(=O)c2ncn[nH]2)cccc1C(=O)NC(C)(C)C
-- reply 5.84

-- ask # lookup: Percent Effect of CN1CCOC(CNC(=O)CCCc2ccccc2)C1 (stereo unspecified)
-- reply -9.04

-- ask # lookup: Percent Effect of CCN(CC)c1ncccc1CNCc1ccc(-c2ccn[nH]2)s1
-- reply 1.23

-- ask # lookup: Percent Effect of Cc1nc(CNCc2cccc(OC34CCCN(CC3)C4)c2)n[nH]1 (stereo unspecified)
-- reply -7.43

-- ask # lookup: Percent Effect of COc1ccc(C)cc1CN(C)CC(N)=O
-- reply -2.2

-- ask # lookup: Percent Effect of CN(C)c1ccc(C(=O)Nc2cnn(Cc3ccccn3)c2)cc1
-- reply -1.9

-- ask # lookup: Percent Effect of O=S(=O)(c1cn[nH]c1)N1CCCC(O)(CN2CCOCC2)CC1 (stereo unspecified)
-- reply 13.3

-- ask # lookup: Percent Effect of CC(C)(C)NC(=O)CNc1ccc(Br)cn1
-- reply 7.07

-- ask # lookup: Percent Effect of CCc1nnc(Nc2cc(C)nc(C3CN(C(=O)C(C)C)CCO3)c2)s1 (stereo unspecified)
-- reply -1.78

-- ask # lookup: Percent Effect of NC(=O)c1ccc(N2CCN(CCCc3cn[nH]c3)CC2)cc1
-- reply -7.64
